- TARGET_OF_ASSAY: Rev responsive element (RRE) RNA
- TEST_PROTOCOL: Binding affinity to HIV-1 RRE 2B RNA measured after 4 hrs by dot blot assay
- Format: nucleic-acid assay, Human immunodeficiency virus 1
Where a SMILES comes first, the peptide text is derived from it. Side-chain parts run from the residue outwards. [ ]: non-standard residue; d: D form. The star is where a group is joined. X3 = NCCCC[C@H](N)C(=O)N[C@@H](CCCCNC(=O)c1ccc(B(O)O)cc1)C(=O)*; Phe(4-B(OH)2) = N[C@@H](Cc1ccc(B(O)O)cc1)C(=O)O; Benzoyl(4-B(OH)2) = O=C(c1ccc(B(O)O)cc1)*
OBSERVABLE: pKd
# reply with the number alone; pKd is -log10 of concentration in mol/L

Looking up NCCCC[C@H](NC(=O)[C@H](CCCCN)NC(=O)[C@@H](N)Cc1c[nH]c2ccccc12)C(=O)NCCCC[C@H](NC(=O)[C@H](CCCCN)NC(=O)[C@H](CCCCN)NC(=O)[C@@H](N)Cc1c[nH]c2ccccc12)C(=O)N[C@@H](CCCCNC(=O)c1ccc(B(O)O)cc1)C(=O)N[C@@H](Cc1ccc(O)cc1)C(=O)N[C@@H](Cc1c[nH]c2ccccc12)C(=O)N[C@@H](Cc1ccc(O)cc1)C(=O)O (H-WKKK([Lys-Lys-Trp])K(Benzoyl(4-B(OH)2))YWY-OH) , I see its pKd listed as 5.85

Looking up NCCCC[C@H](NC(=O)[C@H](CCCCN)NC(=O)[C@H](CCCCNC(=O)[C@H](Cc1ccccc1)NC(=O)[C@H](CCCCNC(=O)c1ccc(B(O)O)cc1)NC(=O)[C@@H](N)CCCCN)NC(=O)[C@H](Cc1ccccc1)NC(=O)[C@H](CCCCNC(=O)c1ccc(B(O)O)cc1)NC(=O)[C@@H](N)CCCCN)C(=O)N[C@@H](Cc1c[nH]c2ccccc12)C(=O)N[C@@H](Cc1ccc(O)cc1)C(=O)O (H-KK(Benzoyl(4-B(OH)2))FK([Phe-X3])KKWY-OH) , I see its pKd listed as 4.57

Looking up NCCCC[C@H](NC(=O)[C@H](CC(N)=O)NC(=O)[C@H](Cc1ccc(B(O)O)cc1)NC(=O)[C@H](Cc1ccc(O)cc1)NC(=O)[C@H](Cc1ccc(B(O)O)cc1)NC(=O)[C@H](Cc1ccc(B(O)O)cc1)NC(=O)[C@H](Cc1ccc(O)cc1)NC(=O)[C@@H](N)Cc1ccc(B(O)O)cc1)C(=O)N[C@@H](CO)C(=O)N[C@@H](Cc1ccc(O)cc1)C(=O)O (H-[Phe(4-B(OH)2)]Y[Phe(4-B(OH)2)][Phe(4-B(OH)2)]Y[Phe(4-B(OH)2)]NKSY-OH) , I see its pKd listed as 4.57

----------
- TARGET_OF_ASSAY: Rev responsive element (RRE) RNA
- TEST_PROTOCOL: Binding affinity to HIV-1 RRE 2B RNA measured after 4 hrs by dot blot assay
- Format: nucleic-acid assay, Human immunodeficiency virus 1
Where a SMILES comes first, the peptide text is derived from it. [ ]: non-standard residue; d: D form. The star is where a group is joined. X1 = N[C@@H](Cc1ccc(B(O)O)cc1)C(=O)N[C@@H](Cc1ccc(O)cc1)C(=O)N[C@@H](Cc1ccc(B(O)O)cc1)C(=O)*; Phe(4-B(OH)2) = N[C@@H](Cc1ccc(B(O)O)cc1)C(=O)O
OBSERVABLE: pKd
# reply with the number alone; pKd is -log10 of concentration in mol/L

Looking up NCCCC[C@H](NC(=O)[C@H](CC(N)=O)NC(=O)[C@H](CCCCNC(=O)[C@H](Cc1ccc(B(O)O)cc1)NC(=O)[C@H](Cc1ccc(O)cc1)NC(=O)[C@@H](N)Cc1ccc(B(O)O)cc1)NC(=O)[C@H](Cc1ccc(B(O)O)cc1)NC(=O)[C@H](Cc1ccc(O)cc1)NC(=O)[C@@H](N)Cc1ccc(B(O)O)cc1)C(=O)N[C@@H](CO)C(=O)N[C@@H](Cc1ccc(O)cc1)C(=O)O (H-[Phe(4-B(OH)2)]Y[Phe(4-B(OH)2)]K(X1)NKSY-OH) , I see its pKd listed as 5.06

Source of measurements: ChEMBL document CHEMBL4431310
